- Tested system: T1, 6XHis-ENY2 (human, UniProt Q9NPA8 1-101)
- T1 construct: ENY2, human homolog of Sus1; cDNA cloned into the NdeI and SalI sites of pET28a; also called human Sus1 homolog; DC6/ENY2; source: E. coli BL21, purified (Ni-NTA Agarose)
- T1 sequence (looked up): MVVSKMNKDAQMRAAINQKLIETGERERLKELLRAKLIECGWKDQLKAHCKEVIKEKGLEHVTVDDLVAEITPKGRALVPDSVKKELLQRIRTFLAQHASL
- Test name: pull-down; GST or GST fusions immobilised on glutathione Sepharose 4B; purified ENY2 added in 10-fold excess, washed extensively with NB buffer (150 mM NaCl, 50 mM KOAc, 20 mM Tris, 2 mM Mg(OAc)2, 0.1% NP-40); SDS-PAGE (Figure S4)
- Assay setup: both partners purified
Endpoint: binding result

GST-GANP(1162–1240) (domain or fragment, human, UniProt O60318 1162-1240, looked up, Vector pGEXTEV; not shown: GST, N-terminal, kept) ELVLSELSQGLAVELMERVMMEFVRETCSQELKNAVETDQRVRVARCCEDVCAHLVDLFLVEEIFQTAKETLQELQCFC: binds
KQVITEQIANDLVKEVVNSSVISIVKREFS (domain or fragment, yeast, UniProt P46674 723-752, looked up, Vector pGEXTEV; source: E. coli, immobilised on glutathione Sepharose 4B resin from clarified lysate; not shown: GST, N-terminal, kept) [GST-Sac3(723–752)]: binds
ELVLSELSQGLAVELMERVMMEFVRETCSQELKNAVETDQRVR (domain or fragment, human, UniProt O60318 1162-1204, looked up, Vector pGEXTEV; not shown: GST, N-terminal, kept) [GST-GANP(1162–1204)]: binds
KDFIDTMTRELYDAFLHERLYLIYMDSRAELKRNSTLKKKFFEKWQAS (domain or fragment, yeast, UniProt P46674 758-805, looked up, Vector pGEXTEV; The methods say that GST-Sac3 fragments were coexpressed with Cdc31; source: E. coli, immobilised on glutathione Sepharose 4B resin from clarified lysate; not shown: GST, N-terminal, kept) [GST-Sac3(758–805)]: binds

Numbers sourced from paper PMC2726291.
